Kindly state ED50 for each of the entries shown.
Molecular target: 5-HT1A (Rattus norvegicus)
Sequence (P19327 1-422): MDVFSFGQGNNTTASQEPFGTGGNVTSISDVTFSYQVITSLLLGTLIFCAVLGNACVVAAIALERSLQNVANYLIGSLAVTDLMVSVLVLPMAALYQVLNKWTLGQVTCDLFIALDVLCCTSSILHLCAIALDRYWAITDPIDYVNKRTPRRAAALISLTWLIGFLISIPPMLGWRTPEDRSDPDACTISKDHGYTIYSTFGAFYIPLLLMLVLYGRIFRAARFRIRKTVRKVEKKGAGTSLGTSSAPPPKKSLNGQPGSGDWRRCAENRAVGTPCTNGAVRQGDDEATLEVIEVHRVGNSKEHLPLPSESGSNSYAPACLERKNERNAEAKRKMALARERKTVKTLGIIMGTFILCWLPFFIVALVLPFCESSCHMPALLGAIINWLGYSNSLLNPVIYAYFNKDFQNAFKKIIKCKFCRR
Test: Serotoninergic (5-HT) syndrome
Type: in vivo, male rat (Sprague-Dawley)
Parameters: carried out with the male rat (Sprague-Dawley); from tissue; host or cells: whole living rat (in vivo)
Settings: po; reciprocal fore-paw treading (FPT), male rat; read-out: 5-HT syndrome ED50 FPT
Answers are plain numbers, in mg/kg.

// worked examples, ED50 included
> print(dat)
                                   compound  metric  unit.of.measure  assay.result
1  Cn1ncc(OCC[C@H]2CC[C@@H]3CN(c4ncccn4)CCN3C2)nc1=O (single isomer, unassigned) [Compound 26]    ED50            mg/kg          0.04
2   Cn1ncc(OCCCCN2CCN(c3ncc(F)cn3)CC2)nc1=O    ED50            mg/kg          0.31
3  Cc1cc(C)nc(N2CCN(CCCCOc3cnn(C)c(=O)n3)CC2)n1.O=C(O)/C=C/C(=O)O    ED50            mg/kg          0.08
4  COc1ccnc(N2CCN(CCCCOc3cnn(C)c(=O)n3)CC2)n1    ED50            mg/kg          0.08

Hey, quick one: what's ED50 for each of these?
1. Cc1ccnc(N2CCN(CCCCOc3cnn(C)c(=O)n3)CC2)n1.O=C(O)/C=C/C(=O)O
2. Cn1ncc(OCCCCNCC2COc3ccccc3O2)nc1=O (stereo not shown)
3. Cn1ncc(OCC[C@H]2CC[C@@H]3CN(c4ncccn4)CCN3C2)nc1=O (relative stereo) [Compound 24]

0.08
0.31
0.08

Hey, quick one: what's ED50 for each of these?
1. Cn1ncc(OCCCCN2CCN(c3nccc(Cl)n3)CC2)nc1=O
2. Cn1ncc(OCCCCN2CCN(c3ncccn3)CC2)nc1=O

1: 0.08; 2: 0.08
